Origin of the recorded values: ChEMBL document CHEMBL1131392

test: Compound was evaluated for half life (t1/2) upon intravenous administration of 1 mg/Kg in rats; format: ADME, organism-based; conditions: rat, in vivo

[
  {
    "Query Smiles": "O=S(=O)(Nc1ccc(CCNC[C@H](O)COc2ccc(O)cc2)cc1)c1ccccc1",
    "half-life [min]": 25
  }
]

====

experiment: Plasma clearance upon intravenous administration of 1 mg/Kg in rats; type: ADME, organism-based; conditions: rat

[
  {
    "Query Smiles": "O=S(=O)(Nc1ccc(CCNC[C@H](O)COc2ccc(O)cc2)cc1)c1ccccc1",
    "clearance": "> 200 mL/min/kg"
  }
]

====

bioavailability values by entry
assay: Oral bioavailability in dog; type: ADME, organism-based, Canis lupus familiaris; details: in vivo

[
  {
    "Query Smiles": "CCCCCCNC(=O)Nc1ccc(S(=O)(=O)Nc2ccc(CCNC[C@H](O)COc3ccc(O)cc3)cc2)cc1",
    "Qualifier Operator": "<",
    "bioavailability (%)": 1
  },
  {
    "Query Smiles": "O=S(=O)(Nc1ccc(CCNC[C@H](O)COc2ccc(O)cc2)cc1)c1cnc2ccccc2c1",
    "Qualifier Operator": "=",
    "bioavailability (%)": 3
  }
]
